The measured values listed here are drawn from the NIST ThermoML archive (doi:10.1021/je0601208).

Assay: xn = mol fraction of the nth substance listed
Settings: 298.15 K, x1 = 0.15
observation.type: surface tension liquid-gas (mN/m)

- compound: "CCCCCCCC(=O)OCC [ethyl octanoate] + CCO"
  units.label: "mN/m"
  numeric.result: 23.7
- compound: "CC(=O)OCCC(C)C [3-methylbutyl ethanoate] + CCO"
  units.label: "mN/m"
  numeric.result: 22.7
- compound: "CCOC(=O)c1ccccc1 [ethyl benzoate] + CCO"
  units.label: "mN/m"
  numeric.result: 24.6
- compound: "CCOC(=O)Cc1ccccc1 [ethyl phenylacetate] + CCO"
  units.label: "mN/m"
  numeric.result: 24.3
- compound: "CCCC(=O)OCCC(C)C [3-methylbutyl butanoate] + CCO"
  units.label: "mN/m"
  numeric.result: 23
- compound: "CCCCCC(=O)OCC [ethyl hexanoate] + CCO"
  units.label: "mN/m"
  numeric.result: 23.2

----------
Let's look at some compounds and their measured surface tension liquid-gas.
Assay: xn = mol fraction of the nth substance listed
Conditions: 308.15 K, x1 = 0.95
observation.type: surface tension liquid-gas (mN/m)

- compound: "CCCCCCCC(=O)OCC [ethyl octanoate] + CCO"
  numeric.result: 25.4
- compound: "CCCCCC(=O)OCC [ethyl hexanoate] + CCO"
  numeric.result: 24.4
- compound: "CCCC(=O)OCCC(C)C [3-methylbutyl butanoate] + CCO"
  numeric.result: 23.9
- compound: "CCOC(=O)Cc1ccccc1 [ethyl phenylacetate] + CCO"
  numeric.result: 32.8
- compound: "CC(=O)OCCC(C)C [3-methylbutyl ethanoate] + CCO"
  numeric.result: 23.3
- compound: "CCOC(=O)c1ccccc1 [ethyl benzoate] + CCO"
  numeric.result: 32.6

----------
Let's look at some molecules and their measured surface tension liquid-gas.
Assay: xn = mol fraction of the nth substance listed
Settings: 308.15 K, x1 = 0.35
Numbers after ± are expanded uncertainties.

- molecule: "CC(=O)OCCC(C)C [3-methylbutyl ethanoate] + CCO"
  surface tension liquid-gas: "22.1 ± 0.4 mN/m"
- molecule: "CCCCCCCC(=O)OCC [ethyl octanoate] + CCO"
  surface tension liquid-gas: "23.9 ± 0.6 mN/m"
- molecule: "CCOC(=O)c1ccccc1 [ethyl benzoate] + CCO"
  surface tension liquid-gas: "26.1 ± 0.6 mN/m"
- molecule: "CCCC(=O)OCCC(C)C [3-methylbutyl butanoate] + CCO"
  surface tension liquid-gas: "22.7 ± 0.6 mN/m"
- molecule: "CCCCCC(=O)OCC [ethyl hexanoate] + CCO"
  surface tension liquid-gas: "23.1 ± 0.6 mN/m"
- molecule: "CCOC(=O)Cc1ccccc1 [ethyl phenylacetate] + CCO"
  surface tension liquid-gas: "25.7 ± 0.6 mN/m"

----------
Experiment: xn = mol fraction of the nth substance listed
Conditions: 318.15 K, x1 = 0.15
Let's look at some compounds and their measured surface tension liquid-gas.

- compound: "CCCC(=O)OCCC(C)C [3-methylbutyl butanoate] + CCO"
  surface tension liquid-gas [mN/m]: 21.3
- compound: "CCCCCC(=O)OCC [ethyl hexanoate] + CCO"
  surface tension liquid-gas [mN/m]: 21.5
- compound: "CC(=O)OCCC(C)C [3-methylbutyl ethanoate] + CCO"
  surface tension liquid-gas [mN/m]: 20.7
- compound: "CCCCCCCC(=O)OCC [ethyl octanoate] + CCO"
  surface tension liquid-gas [mN/m]: 21.9
- compound: "CCOC(=O)Cc1ccccc1 [ethyl phenylacetate] + CCO"
  surface tension liquid-gas [mN/m]: 22.4
- compound: "CCOC(=O)c1ccccc1 [ethyl benzoate] + CCO"
  surface tension liquid-gas [mN/m]: 22.8

----------
Let's look at some molecules and their measured refractive index.
Experiment: refractive index (Na D-line) (dimensionless); xn = mol fraction of the nth substance listed
Details: 318.15 K; 100.5 kPa; Liquid; Standard Abbe refractometry; x1 = 0.75
± gives the expanded uncertainty stated by the source.

- molecule: "CCCCCCCC(=O)OCC [ethyl octanoate] + CCO"
  refractive index: "1.40183 ± 0.00032"
- molecule: "CC(=O)OCCC(C)C [3-methylbutyl ethanoate] + CCO"
  refractive index: "1.3844 ± 0.00033"
- molecule: "CCCCCC(=O)OCC [ethyl hexanoate] + CCO"
  refractive index: "1.39111 ± 0.00032"
- molecule: "CCCC(=O)OCCC(C)C [3-methylbutyl butanoate] + CCO"
  refractive index: "1.39459 ± 0.00033"
- molecule: "CCOC(=O)c1ccccc1 [ethyl benzoate] + CCO"
  refractive index: "1.47724 ± 0.00032"
- molecule: "CCOC(=O)Cc1ccccc1 [ethyl phenylacetate] + CCO"
  refractive index: "1.47132 ± 0.00033"

----------
Settings: 288.15 K

- molecule: "CCOC(=O)c1ccccc1 [ethyl benzoate]"
  surface tension liquid-gas [mN/m]: 35.7
- molecule: "CCCCCC(=O)OCC [ethyl hexanoate]"
  surface tension liquid-gas [mN/m]: 26.4
- molecule: "CCCCCCCC(=O)OCC [ethyl octanoate]"
  surface tension liquid-gas [mN/m]: 27.2
- molecule: "CCO"
  surface tension liquid-gas [mN/m]: 23
- molecule: "CC(=O)OCCC(C)C [3-methylbutyl ethanoate]"
  surface tension liquid-gas [mN/m]: 25.4
- molecule: "CCOC(=O)Cc1ccccc1 [ethyl phenylacetate]"
  surface tension liquid-gas [mN/m]: 35.9
- molecule: "CCCC(=O)OCCC(C)C [3-methylbutyl butanoate]"
  surface tension liquid-gas [mN/m]: 25.7

----------
Experiment: refractive index (Na D-line) (dimensionless); xn = mol fraction of the nth substance listed
Details: 288.15 K; 100.5 kPa; Liquid; Standard Abbe refractometry; x1 = 0.9

- compound: "CCOC(=O)c1ccccc1 [ethyl benzoate] + CCO"
  refractive index: 1.5017
- compound: "CCCCCCCC(=O)OCC [ethyl octanoate] + CCO"
  refractive index: 1.4181
- compound: "CC(=O)OCCC(C)C [3-methylbutyl ethanoate] + CCO"
  refractive index: 1.40122
- compound: "CCOC(=O)Cc1ccccc1 [ethyl phenylacetate] + CCO"
  refractive index: 1.49461
- compound: "CCCC(=O)OCCC(C)C [3-methylbutyl butanoate] + CCO"
  refractive index: 1.41096
- compound: "CCCCCC(=O)OCC [ethyl hexanoate] + CCO"
  refractive index: 1.4078

----------
Experiment: xn = mol fraction of the nth substance listed
Details: 318.15 K, x1 = 0.3
Numbers after ± are expanded uncertainties.
Let's look at some compounds and their measured surface tension liquid-gas.

- compound: "CC(=O)OCCC(C)C [3-methylbutyl ethanoate] + CCO"
  surface tension liquid-gas: "21 ± 0.4 mN/m"
- compound: "CCOC(=O)Cc1ccccc1 [ethyl phenylacetate] + CCO"
  surface tension liquid-gas: "24.1 ± 0.6 mN/m"
- compound: "CCCC(=O)OCCC(C)C [3-methylbutyl butanoate] + CCO"
  surface tension liquid-gas: "21.7 ± 0.6 mN/m"
- compound: "CCCCCC(=O)OCC [ethyl hexanoate] + CCO"
  surface tension liquid-gas: "22 ± 0.6 mN/m"
- compound: "CCCCCCCC(=O)OCC [ethyl octanoate] + CCO"
  surface tension liquid-gas: "22.8 ± 0.6 mN/m"
- compound: "CCOC(=O)c1ccccc1 [ethyl benzoate] + CCO"
  surface tension liquid-gas: "24.7 ± 0.6 mN/m"

----------
Assay: xn = mol fraction of the nth substance listed
Details: 288.15 K, x1 = 0.65
observation.type: surface tension liquid-gas (mN/m)

- compound: "CC(=O)OCCC(C)C [3-methylbutyl ethanoate] + CCO"
  numeric.result: 24.7
- compound: "CCCCCC(=O)OCC [ethyl hexanoate] + CCO"
  numeric.result: 25.7
- compound: "CCCC(=O)OCCC(C)C [3-methylbutyl butanoate] + CCO"
  numeric.result: 25
- compound: "CCOC(=O)Cc1ccccc1 [ethyl phenylacetate] + CCO"
  numeric.result: 31.6
- compound: "CCOC(=O)c1ccccc1 [ethyl benzoate] + CCO"
  numeric.result: 31.2
- compound: "CCCCCCCC(=O)OCC [ethyl octanoate] + CCO"
  numeric.result: 26.5

----------
Test: xn = mol fraction of the nth substance listed
Conditions: 318.15 K, x1 = 0.7
Let's look at some compounds and their measured surface tension liquid-gas.
observation.type: surface tension liquid-gas (mN/m)

- compound: "CCOC(=O)c1ccccc1 [ethyl benzoate] + CCO"
  numeric.result: 28.8
- compound: "CCCCCC(=O)OCC [ethyl hexanoate] + CCO"
  numeric.result: 23
- compound: "CCOC(=O)Cc1ccccc1 [ethyl phenylacetate] + CCO"
  numeric.result: 29
- compound: "CCCCCCCC(=O)OCC [ethyl octanoate] + CCO"
  numeric.result: 24.1
- compound: "CCCC(=O)OCCC(C)C [3-methylbutyl butanoate] + CCO"
  numeric.result: 22.5
- compound: "CC(=O)OCCC(C)C [3-methylbutyl ethanoate] + CCO"
  numeric.result: 21.8
